Where these numbers come from: ChEMBL document CHEMBL1201862

test system: UACC-257; experiment: NCI tumour cell line growth inhibition, 48 h
Active and inactive are the calls of the source. No stated cut-off is given here; in the data, active = GI50 up to about 1.1 µM and inactive = higher.
Quantity: GI50

Sample records with GI50:
Query :: Fill in reported GI50 for this entry: Cc1nn(-c2ccccc2)c2c1C(c1cc3ccccc3nc1Cl)NC(=O)N2 (stereo unspecified)
Result :: 27.7 µM (inactive)

Query :: Fill in reported GI50 for this entry: `CCOC(=O)c1cc2ncccc2c2ccccc12`
Result :: > 100 µM (inactive)

More entries:
Query :: Fill in reported GI50 for this entry: `CCCCCCCCCCCCNC1(C)CNCCCNCCNCCCNC1`
Result :: 1.76 µM (inactive)

Query :: Fill in reported GI50 for this entry: `Cc1cc(/N=C/c2c(CO)cnc(C)c2O)c(/N=C/c2c(CO)cnc(C)c2O)cc1C`
Result :: > 100 µM (inactive)

Query :: Fill in reported GI50 for this entry: `O=c1c2ccccc2nc2sc(/N=C/C=C/c3ccccc3)nn12`
Result :: > 100 µM (inactive)

Query :: Fill in reported GI50 for this entry: `Cc1ccc(C(=O)O/N=C2/CCC/C2=C\c2ccccc2)cc1`
Result :: > 100 µM (inactive)

----------
system: OVCAR-5; assay: NCI tumour cell line growth inhibition, 48 h
Active and inactive are the calls of the source. No stated cut-off is given here; in the data, active = GI50 up to about 1.1 µM and inactive = higher.
Quantity: GI50

Query :: Fill in reported GI50 for this entry: `O=C1C=C(Nc2ccccc2C(=O)CC(=O)C(=O)Nc2cccc([N+](=O)[O-])c2)c2ccccc2C1=O`
Result :: > 100 µM (inactive)

More entries:
Query :: Fill in reported GI50 for this entry: C[C@]12CC(c3ccccc3O1)C(C(=O)Nc1nc(C34CC5CC(CC(C5)C3)C4)cs1)C(=O)N2 (some centres undefined)
Result :: > 100 µM (inactive)

Query :: Fill in reported GI50 for this entry: CC1OC(n2cc(F)c(=O)[nH]c2=O)CCC1=O (centres undefined)
Result :: > 100 µM (inactive)

Query :: Fill in reported GI50 for this entry: `COc1ccc(C(=O)c2nc3ccccc3nc2N2CCN(c3ccccc3)CC2)cc1OC`
Result :: > 100 µM (inactive)

Query :: Fill in reported GI50 for this entry: N=C(N)Nc1ccc(CC(N)C(=O)O)cc1 (centres undefined)
Result :: > 12.5 µM (inactive)

Query :: Fill in reported GI50 for this entry: `CNc1nc(N)nc(Nc2ccc(I)cc2)c1N=O`
Result :: > 100 µM (inactive)

Query :: Fill in reported GI50 for this entry: `COc1cc2c(cc1OCCCCCCCCCCN1C(=O)c3cccc4cccc(c34)C1=O)N=C[C@@H]1CCCN1C2=O`
Result :: 25.8 µM (inactive)

Query :: Fill in reported GI50 for this entry: `COc1cc2c(cc1O)CCN(C)[C@H]2Cc1ccc(Oc2c(O)c(OC)cc3c2C[C@H]2c4c(c(OC)c(OC)c(OC)c4-3)CCN2C)cc1`
Result :: 7.5 µM (inactive)

----------
tested on: OVCAR-5; assay: NCI tumour cell line growth inhibition, 48 h
The source made the active and inactive calls. Cut-off read from the data, not from the text of the source: active = GI50 up to about 1.1 µM and inactive = higher.
GI50 listing for selected compounds.

Sample records with GI50:
Query :: Fill in reported GI50 for this entry: `Nc1nc(Cl)cc(NCCCNc2cc(Cl)nc(N)n2)n1`
Result :: > 100 µM (inactive)

Query :: Fill in reported GI50 for this entry: `O=[N+]([O-])c1cccc2nc3ccccc3c(NCCN(CCO)CCO)c12`
Result :: 0.00501 µM (active)

Would you kindly look at the next entry?
Query :: Fill in reported GI50 for this entry: `Cc1[nH]c(=O)nc(NCCNCCO)c1C(=O)Nc1c2ccccc2nc2ccccc12`
Result :: > 100 µM (inactive)

----------
GI50 listing for selected compounds.
test system: COLO 205; experiment: NCI tumour cell line growth inhibition, 48 h
Active and inactive are the calls of the source. Cut-off read from the data, not from the text of the source: active = GI50 up to about 1.1 µM and inactive = higher.

Sample records with GI50:
Query :: Fill in reported GI50 for this entry: `O=C1N2CCC[C@H]2CS1(=O)=O`
Result :: 12.2 µM (inactive)

Query :: Fill in reported GI50 for this entry: C[N+]1(CCN[N+]2(C)CCCCC2)CCc2ccccc2C1 (centres undefined)
Result :: > 100 µM (inactive)

Query :: Fill in reported GI50 for this entry: `CCNCC(=O)Nc1ccc2c(c1)C(=O)c1ccc(NC(=O)CNCC)cc1C2=O`
Result :: 1.71 µM (inactive)

Query :: Fill in reported GI50 for this entry: CC#CC1C(OC(=O)c2ccccc2)CCCC1(CI)N=[N+]=[N-] (centres undefined)
Result :: > 100 µM (inactive)

Query :: Fill in reported GI50 for this entry: `CSc1ccc(/C=C/c2ccnc3ccccc23)cc1`
Result :: 11.3 µM (inactive)

More entries:
Query :: Fill in reported GI50 for this entry: `CC[n+]1cnc(N)c2c(-c3ccc(Cl)cc3)cn(-c3ccc(C)cc3)c21`
Result :: 3.78 µM (inactive)

----------
test system: SNB-75; assay: NCI tumour cell line growth inhibition, 48 h
Active and inactive are the calls of the source. Cut-off read from the data, not from the text of the source: active = GI50 up to about 1.1 µM and inactive = higher.
Select the matching outcome among 1 (yes) = active, 0 (no) = inactive

Query :: Called result for `COc1cc2c(cc1OC)[C@H]1CN3CCC[C@H]3C=C1c1ccc(OC)c(O)c1-2`
Result :: 1 (yes)

More entries:
Query :: Called result for C/C=C1/CN2CCC34C5=CC(=O)C(c6cc7c(cc6OC)N(C)C6=C(C(=O)OC)CC8(CC)CCCN9CCC67C98)=CC5=NC23CCC1C4C(=O)OC (stereo unspecified)
Result :: 0 (no)

Query :: Called result for `Nc1nc(N)c(CCCCc2ccccc2)c(C=O)n1`
Result :: 0 (no)

Query :: Called result for `NC(=O)C(=CNC(=S)Nc1ccccc1)C(N)=O`
Result :: 0 (no)

Query :: Called result for `O=C(Cc1ccccc1)NN1C(=O)/C(=C\c2cccc([N+](=O)[O-])c2)S/C1=N\c1ccccc1`
Result :: 0 (no)

Query :: Called result for `O=S(=O)(O)c1ccc(/N=N/c2nc(C(F)(F)F)c(C(F)(F)F)[nH]2)cc1`
Result :: 0 (no)

Query :: Called result for N#CC1=C(N)OC2=C(CCCc3ccccc32)C1c1ccc([N+](=O)[O-])cc1 (stereo unspecified)
Result :: 0 (no)

----------
tested on: SF-268; experiment: NCI tumour cell line growth inhibition, 48 h
Calls of active or inactive are those of the source. No stated cut-off is given here; in the data, active = GI50 up to about 1.1 µM and inactive = higher.
GI50 listing for selected compounds.

Query :: Fill in reported GI50 for this entry: `COc1ccc(/C=C/C(=O)C(C)(C)C)cc1OC`
Result :: 78.2 µM (inactive)

Query :: Fill in reported GI50 for this entry: `O=C1OC(c2ccc([N+](=O)[O-])cc2)=N/C1=C\c1ccc(Cl)cc1`
Result :: > 100 µM (inactive)

More entries:
Query :: Fill in reported GI50 for this entry: Cc1nn(-c2ccccc2)c2c1C(c1cc3ccccc3nc1Cl)NC(=O)N2 (configuration not stated)
Result :: 27.4 µM (inactive)

Query :: Fill in reported GI50 for this entry: `c1csc(-c2ccc(-c3cccc4nsnc34)s2)c1`
Result :: > 100 µM (inactive)

Query :: Fill in reported GI50 for this entry: `COc1ccccc1-n1nnc2c(N)nc(N)nc21`
Result :: > 100 µM (inactive)

Query :: Fill in reported GI50 for this entry: COP(=O)(CP(=O)(OC)OCCC(C)CCC=C(C)C)OC (configuration not stated)
Result :: > 100 µM (inactive)

Query :: Fill in reported GI50 for this entry: `O=S(=O)(c1ccccc1)c1cccc2c1NCCC2`
Result :: 72.1 µM (inactive)

----------
system: KM12; experiment: NCI tumour cell line growth inhibition, 48 h
Calls of active or inactive are those of the source. Rule as the data show it: active = GI50 up to about 1.1 µM and inactive = higher.
Quantity: GI50

Query :: Fill in reported GI50 for this entry: CC1CC2OC(=O)CC2C[C@@H]1O[Si](C)(C)C(C)(C)C (some centres undefined)
Result :: 44.3 µM (inactive)

Query :: Fill in reported GI50 for this entry: `COc1ccc(C2=C(N)c3cc(OC)ccc3C2=O)cc1`
Result :: 29.2 µM (inactive)

Query :: Fill in reported GI50 for this entry: `CCOC(=O)c1cc(/C=C/C(C)=C/C(=O)OC)oc1-c1ccccc1`
Result :: 48.4 µM (inactive)

Query :: Fill in reported GI50 for this entry: `O=C1N=C2N=C(c3ccc(Cl)cc3)N(c3ccc(Cl)cc3)N2Sc2ccccc21`
Result :: 83.9 µM (inactive)

----------
tested on: CAKI-1; assay: NCI tumour cell line growth inhibition, 48 h
Active and inactive are the calls of the source. Cut-off read from the data, not from the text of the source: active = GI50 up to about 1.1 µM and inactive = higher.
Quantity: GI50

Sample records with GI50:
Query :: Fill in reported GI50 for this entry: `O=C1N2CCC[C@H]2CS1(=O)=O`
Result :: 5.73 µM (inactive)

Query :: Fill in reported GI50 for this entry: `CS(=O)(=O)NC12CCC(c3ccccc31)c1ccccc12`
Result :: > 100 µM (inactive)

Query :: Fill in reported GI50 for this entry: `CN(C)C(=Nc1nc(N(C)C)s[s+]1)N(C)C`
Result :: > 100 µM (inactive)

Query :: Fill in reported GI50 for this entry: Fc1ccc(C(OCCN2CCC3CCC(C2)N3CCCc2ccccc2)c2ccc(F)cc2)cc1 (configuration not stated)
Result :: 4.86 µM (inactive)

Query :: Fill in reported GI50 for this entry: `C[C@H]1COC2=C1C(=O)C(=O)c1c2ccc2c1CCCC2(C)C`
Result :: 8.22 µM (inactive)

More entries:
Query :: Fill in reported GI50 for this entry: COc1ccc(/C=C2\CCC(CN(C)C)C2=O)cc1OC (configuration not stated)
Result :: 4.8 µM (inactive)

Query :: Fill in reported GI50 for this entry: `N#C/C(=C\n1ccc(=O)[nH]c1=S)C(N)=O`
Result :: > 100 µM (inactive)
